target: SHP2 (Homo sapiens (Human), UniProt Q06124); assay: SHP2 allosteric inhibition experiment (DiFMUP fluorescence); settings: 0.5 nM SHP2 activated with 0.5 μM peptide IRS1_pY1172(dPEG8)pY1222; substrate DiFMUP; 25° C.; read-out: IC50 values of compounds inhibiting SHP2
value.type: IC50 (nM)

Worked set:
{"compound": "C[C@@H]1OCC2(CCN(c3cnc(Sc4cccc(NC(=O)c5cc6n(n5)CCC6)c4Cl)cn3)CC2)[C@@H]1N [Example 39]", "value.type": "IC50", "endpoint.result": 8.3}
{"compound": "C[C@@H]1OCC2(CCN(c3cnc(Sc4cccc(NC(=O)c5cc(F)c(F)cc5Cl)c4Cl)cn3)CC2)[C@@H]1N [Example 13]", "value.type": "IC50", "endpoint.result": 5.88}
{"compound": "C[C@@H]1OCC2(CCN(c3cnc(Sc4cccc(-c5ccn6nccc6n5)c4Cl)cn3)CC2)[C@@H]1N [Example 32]", "value.type": "IC50", "endpoint.result": 2.82}

1 = C[C@@H]1OCC2(CCN(c3cnc(Sc4cccc(NC(=O)c5ccn(C)n5)c4Cl)cn3)CC2)[C@@H]1N [Example 12]
2 = C[C@@H]1OCC2(CCN(c3cnc(Sc4cccc(-c5cnc6[nH]ccc6n5)c4Cl)cn3)CC2)[C@@H]1N [Example 41]
3 = C[C@@H]1OCC2(CCN(c3cnc(Sc4cccc(NC(=O)c5ccccc5C(=O)O)c4Cl)cn3)CC2)[C@@H]1N [Example 22]
4 = C[C@@H]1OCC2(CCN(c3cnc(Sc4cccc(NC(=O)c5ccccc5O)c4Cl)cn3)CC2)[C@@H]1N [Example 37]
Problem: Arrange the 4 compounds by rising IC50, starting with the smallest. When ranking, write the labels in the order the request describes.
Result: 3, 1, 2, 4
(3: 1.72 nM, 1: 3.59 nM, 2: 6.2 nM, 4: 9.01 nM)

A = C[C@@H]1OCC2(CCN(c3cnc(Sc4cccc(-c5nc(C#N)co5)c4Cl)cn3)CC2)[C@@H]1N [Example 27]
B = Cc1coc(-c2cccc(Sc3cnc(N4CCC5(CC4)CO[C@@H](C)[C@H]5N)cn3)c2Cl)n1 [Example 24]
C = C[C@@H]1OCC2(CCN(c3cnc(Sc4cccc(NC(=O)c5c(O)nc6ccccn6c5=O)c4Cl)cn3)CC2)[C@@H]1N [Example 36]
D = C[C@@H]1OCC2(CCN(c3cnc(Sc4cccc(-c5ncco5)c4Cl)cn3)CC2)[C@@H]1N [Example 3]
Problem: Arrange the 4 compounds by rising IC50, starting with the smallest. When ranking, write the labels in the order the request describes.
Result: D, B, A, C

1 = C[C@@H]1OCC2(CCN(c3cnc(Sc4cccc(-c5nc(C#N)co5)c4Cl)cn3)CC2)[C@@H]1N [Example 15]
2 = C[C@@H]1OCC2(CCN(c3cnc(Sc4cccc(Nc5ncccn5)c4Cl)cn3)CC2)[C@@H]1N [Example 43]
Problem: Endpoint returns whichever of 1 and 2 has the numerically higher IC50. Respond with the label that goes with your answer.
Result: 2
(2: 7.5 nM, 1: 4.06 nM)
